Reference for the values: the METLIN SMRT retention time set (Domingo-Almenara et al. 2019)

Field: RP-LC retention time. Provide a value for each of the compounds that follow.
assayNotes: gradient 5% acetonitrile 3 min, to 50% in 2 min, to 85% in 15 min, held 3 min, 100 µL/min
particulars: column: Zorbax Extend-C18 2.1 x 50 mm; eluents: water / acetonitrile, 0.1% formic acid
Answers are plain numbers, in s.

Data request: I'd like to know its RP-LC retention time. The compound in question is CSc1cccc(NC(=O)Cn2cccc(-c3nc(-c4ccccc4)no3)c2=O)c1
Data returned: 911

Record RP-LC retention time per entry; entries follow.
1. Cc1ccc(C(C)C)c(OCC(=O)N(Cc2ccc(C)o2)C2CCS(=O)(=O)C2)c1 (stereo not drawn)
2. CCOC(=O)c1c(N)n(CCCOC)c2nc3ccccc3nc12
3. CC(C)NC(=O)N(CC(=O)N1CCc2sccc2C1COc1cccc(F)c1)C1CC1 (stereo not drawn)
4. Cc1cc(N2CCN(C(=O)Nc3ccc4c(c3)OCCO4)CC2)nc(N2CCOCC2)n1
5. CCOc1ccc(S(=O)(=O)N2CCC(c3nc(C(=O)N(C)C)c(C)o3)CC2)cc1

Data returned:
1. 1110
2. 645
3. 942
4. 609
5. 843

Record RP-LC retention time per entry; entries follow.
1. Cc1ccc(-c2cn3ccn(-c4ccc(F)cc4)c(=O)c3n2)cc1C
2. Cc1cc(C)cc(Oc2nccn3c(=O)n(CC(=O)NCc4ccccc4)nc23)c1
3. O=C1NCCCCCN(C(=O)CN2CCCCCC2)[C@H]2CCC[C@@H]12
4. O=S(=O)(c1ccc(C(F)(F)F)cc1)N1CCCC(Cn2cnc3cccnc32)C1 (stereo not drawn)
5. CC(C)Cc1cc(-c2nn3c(-c4cccc(F)c4)nnc3s2)n[nH]1

Data returned:
901
860
567
831
993

Record RP-LC retention time per entry; entries follow.
1. CN(C)S(=O)(=O)c1cccc(-c2nnc(-c3ccccc3Br)o2)c1
2. CC(C)(C)c1cc(NCc2ccccn2)n2ncc(-c3ccc(Cl)cc3)c2n1

Data returned:
1: 947; 2: 841

Record RP-LC retention time per entry; entries follow.
1. Cc1ccc(-n2nc(C)c3c(C)c(CCC(=O)NCCc4c[nH]c5ccccc45)c(C)nc32)cc1C
2. Cc1nc(S(=O)(=O)N2CCc3c(c(-c4nnc(-c5ccc(F)cc5)o4)nn3C)C2)cn1C
3. CC1(C)CN(C(=O)C2CC2)c2ccc(S(=O)(=O)N3CCN(c4ccccn4)CC3)cc21

Data returned:
1. 1150
2. 703
3. 692

Record RP-LC retention time per entry; entries follow.
1. CC(=O)N1CCc2cc(N3CC(C(=O)Nc4cc(F)cc(F)c4)CC3=O)ccc21 (stereo not drawn)
2. CC(C)OCCCNC(=O)COc1ccccc1-c1nnc(-c2ccccc2)o1
3. CCc1ccc(CNC(=O)c2csc(C(=O)NC)n2)cc1
4. CCC1Oc2ccc(S(=O)(=O)N3CCC(C(=O)Nc4cccc(F)c4)CC3)cc2NC1=O (stereo not drawn)

Data returned:
1. 772
2. 631
3. 808
4. 910

Record RP-LC retention time per entry; entries follow.
1. CC(=O)NCc1nc(-c2cccc(-c3csc(C)n3)c2)no1
2. COc1cccc(CN2CCC(Oc3ccccc3-c3nc(-c4ccncc4)no3)C2)n1 (stereo not drawn)
3. CC(C)Oc1ccc(-c2noc(Cn3nc(-c4ccccc4)ccc3=O)n2)cc1
4. O=C(CCc1nnc2ccc(N3CCC4(CC3)OCCO4)nn12)N1CCN(c2ccccn2)CC1
5. COCC(C)(O)CNC(=O)C(=O)NCCc1ccccc1 (stereo not drawn)
6. Cc1nn(CC(=O)NCC2CCN(Cc3ccc(Cl)cc3)CC2)c(=O)c2noc(C)c12
7. O=C1CCCc2cc(S(=O)(=O)N3CCCC3C(=O)NC3CCCCCC3)ccc2N1 (stereo not drawn)

Data returned:
1. 704
2. 686
3. 732
4. 581
5. 660
6. 617
7. 782

Record RP-LC retention time per entry; entries follow.
1. CC(=O)N1CCCC1c1nc(C2CN(C(=O)CCn3cc(C)cn3)C2)no1 (stereo not drawn)
2. O=C(CCC1CCCC1)NC1(c2nc(-c3cccnc3)no2)CCCCC1
3. O=C(COc1ccccc1F)Nc1ccc2c(c1)CN(C(=O)c1ccco1)CC2
4. Cc1ccc(C(=O)N2CCN(c3nnc4cccc(C)n34)CC2)s1

Data returned:
1. 604
2. 1020
3. 770
4. 659

Record RP-LC retention time per entry; entries follow.
1. O=C(Nc1cccc(Cl)c1F)N1CCCC(Cn2c(C3CC3)nc3cccnc32)C1 (stereo not drawn)
2. Cc1cnc(C(=O)NC2C[C@H]3CC[C@@H](C2)N3C(=O)c2sccc2C)cn1 (stereo partly drawn)
3. O=C(NC1CCN(c2cc(-c3cccs3)[nH]n2)C1)c1ccc(F)cc1Cl (stereo not drawn)
4. CCOc1cc(=O)n2c(c1C(=O)Nc1ccc(Br)c(C)c1)CCCC2
5. Fc1ccc(-c2noc(Cc3nnc(-c4cccc(Br)c4)o3)n2)cc1
6. COc1ccc(CCNC(=O)CN2C(=O)NC(c3ccc(Cl)cc3)C3=C2COC3=O)cc1OC (stereo not drawn)
7. CCOc1ccc(CC(=O)N2CCCn3nc(-c4cccc(C)c4)cc3C2)cc1

Data returned:
1. 723
2. 663
3. 726
4. 848
5. 1120
6. 750
7. 968
